Data origin, for the record: PubChem BioAssay (NCI)

- System: HL-60(TB) leukemia
- protocol_summary: NCI tumour cell line growth inhibition, 48 h
Label rule met when TGI >= 3 µM; otherwise rule not met.

Solved cases (8 shown):
COC(=O)c1nc2c3c(cccc3c1C(=O)OC)Nc1ccccc1-2: rule met
N#CC1=C(N)Nc2nc3ccccc3n2C1c1ccccc1 (centres undefined): rule met
COC1/C=C\OC2(C)Oc3c(C)c(O)c4c(O)c(c(CN(C)C)c(O)c4c3C2=O)NC(=O)/C(C)=C\C=C/C(C)C(O)C(C)C(O)C(C)C(OC(C)=O)C1C (centres undefined): rule met
COc1ccc(-c2nc(-c3nc4cc(C)c(C)cc4[nH]3)cc3c2[nH]c2ccccc23)cc1: rule met
COC(=O)N/N=C(\C)C(CN1CCOCC1)C(c1ccccc1)c1cc2ccccc2oc1=O (centres undefined): rule met
O=C(Nc1ccc(Br)c(Cl)c1)c1cc(F)ccc1O: rule not met
Cc1ccc(NC(=O)c2ccnc(N3CCCC3)c2)cc1-c1ccc(C(=O)NCC2CC2)cc1: rule met
COC(=O)c1c(C(=O)OC)c(C(c2ccccc2)c2ccccc2)n(-c2ccccc2)c1Cl: rule met

API: the following record is the query input.
Problem: Does the compound CCC[CH2][Sn]([CH2]CCC)([S]C1=NCCS1)[S]C1=NCCS1 have recorded TGI that is 3 µM or more?
Solution: rule not met
